# Assay System: T1, 15N-labeled WT ZZZ3-ZZ used in NMR titrations (human)
# T1 chain: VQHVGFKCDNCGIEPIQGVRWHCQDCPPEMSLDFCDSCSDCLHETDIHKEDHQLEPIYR
# Experiment Summary: NMR
pKd: −log10 of the molar value. Where no end group is shown, it is not given here.
# key: entry, value: pKd

{"Binder": "ARTK(Ac)QTAR [H3K4ac peptide of the tryptophan fluorescence and NMR titration experiments]", "pKd": 4.85}
{"Binder": "ARTKQTARKSTG [unmodified H3 peptide of the tryptophan fluorescence and NMR titration experiments]", "pKd": 4.38}
